Exercise: state measured TGI HELA for each of the compounds provided.
Tested on: HeLa
assay-text: SRB colorimetric assay of cell growth and viability, HeLa
Type: cell-based, human
run-conditions: HELA; 48 hours exposure
Where a SMILES comes first, the peptide text is derived from it. Bridges are numbered along the chain shown (N, C = ends). [ ]: non-standard residue; d: D form. The star is where a group is joined. d(aIle) = CC[C@H](C)[C@@H](N)C(=O)O; d(aThr) = C[C@@H](O)[C@@H](N)C(=O)O; hCha = N[C@@H](CCC1CCCCC1)C(=O)O; Hexanoyl(5-Me) = CC(C)CCCC(=O)*; Orn = NCCC[C@H](N)C(=O)O; Dhb = C/C=C(\N)C(=O)O
A number alone suffices; assume Molar.

Data request: Which TGI HELA value is on record for C/C=C1\NC(=O)[C@H](CCC2CCCCC2)NC(=O)[C@@H](C(C)C)NC(=O)[C@@H]([C@@H](C)CC)NC(=O)[C@H](NC(=O)[C@H](NC(=O)[C@H](CCCN)NC(=O)[C@H]2CCCN2C(=O)[C@H](NC(=O)[C@@H](NC(=O)[C@@H](NC(=O)[C@H](NC(=O)CCCC(C)C)C(C)C)[C@@H](C)O)C(C)C)C(C)C)[C@@H](C)CC)[C@@H](C)OC(=O)[C@H](C(C)C)NC1=O [Compound 63] ({Hexanoyl(5-Me)}-[dV]TV[dV][dP][Orn][d(aIle)][d(aThr)][d(aIle)][dV][hCha][Dhb]V; ester 8-C) ?
Data returned: 4.99E−07

Data request: Which TGI HELA value is on record for C/C=C1\NC(=O)[C@H](Cc2ccccc2Cl)NC(=O)[C@@H](C(C)C)NC(=O)[C@@H]([C@@H](C)CC)NC(=O)[C@H](NC(=O)[C@H](NC(=O)[C@H](CCCN)NC(=O)[C@H]2CCCN2C(=O)[C@H](NC(=O)[C@@H](NC(=O)[C@@H](NC(=O)[C@H](NC(=O)CCCC(C)C)C(C)C)[C@@H](C)O)C(C)C)C(C)C)[C@@H](C)CC)[C@@H](C)OC(=O)[C@H](C(C)C)NC1=O [Compound 81, [Phe(2-Cl)^3]-KF] ?
Data returned: 6.33E−07

====

Tested on: SK-MEL-28
assay-text: SRB colorimetric assay of cell growth and viability, SK-MEL-28
Format: cell-based, human
run-conditions: 48 hours exposure
Where a SMILES comes first, the peptide text is derived from it. Bridges are numbered along the chain shown (N, C = ends). [ ]: non-standard residue; d: D form. The star is where a group is joined. d(aIle) = CC[C@H](C)[C@@H](N)C(=O)O; d(aThr) = C[C@@H](O)[C@@H](N)C(=O)O; Hexanoyl(5-Me) = CC(C)CCCC(=O)*; dCha = N[C@H](CC1CCCCC1)C(=O)O; Orn = NCCC[C@H](N)C(=O)O; Dhb = C/C=C(\N)C(=O)O
Exercise: state measured TGI MEL-28 for each of the molecules provided.
A number alone suffices; assume Molar.

Data request: Which TGI MEL-28 value is on record for C/C=C1\NC(=O)[C@H](Cc2ccccc2)NC(=O)[C@@H](C(C)C)NC(=O)[C@@H]([C@@H](C)CC)NC(=O)[C@H](NC(=O)[C@H](NC(=O)[C@H](CCCN)NC(=O)[C@H]2CCCN2C(=O)[C@H](NC(=O)[C@@H](NC(=O)CNC(=O)CCCC(C)C)C(C)C)C(C)C)[C@@H](C)CC)[C@@H](C)OC(=O)[C@H](C(C)C)NC1=O [Compound 53, [Gly^12, noD-Val^13]-KF] ({Hexanoyl(5-Me)}-GV[dV][dP][Orn][d(aIle)][d(aThr)][d(aIle)][dV]F[Dhb]V; ester 7-C) ?
Data returned: 7.49E−06

Data request: Which TGI MEL-28 value is on record for C/C=C1\NC(=O)[C@H](Cc2ccccc2)NC(=O)[C@@H](C(C)C)NC(=O)[C@@H]([C@@H](C)CC)NC(=O)[C@H](NC(=O)[C@H](NC(=O)[C@H](CCCN)NC(=O)[C@H]2CCCN2C(=O)[C@H](NC(=O)[C@@H](NC(=O)[C@H](CCC(=O)O)NC(=O)CCCC(C)C)C(C)C)C(C)C)[C@@H](C)CC)[C@@H](C)OC(=O)[C@H](C(C)C)NC1=O [Compound 56, [Glu^12, noD-Val^13]-KF] ({Hexanoyl(5-Me)}-EV[dV][dP][Orn][d(aIle)][d(aThr)][d(aIle)][dV]F[Dhb]V; ester 7-C) ?
Data returned: 7.11E−06

Data request: Which TGI MEL-28 value is on record for C/C=C1\NC(=O)[C@H](Cc2ccccc2)NC(=O)[C@@H](CC2CCCCC2)NC(=O)[C@@H](CC2CCCCC2)NC(=O)[C@H](NC(=O)[C@@H](CC2CCCCC2)NC(=O)[C@H](CCCN)NC(=O)[C@H]2CCCN2C(=O)[C@H](NC(=O)[C@@H](NC(=O)[C@@H](NC(=O)[C@H](NC(=O)CCCC(C)C)C(C)C)[C@@H](C)O)C(C)C)C(C)C)[C@@H](C)OC(=O)[C@H](C(C)C)NC1=O [Compound 11, [D-Cha^4, D-Cha^5, D-Cha^7]-KF] ({Hexanoyl(5-Me)}-[dV]TV[dV][dP][Orn][dCha][d(aThr)][dCha][dCha]F[Dhb]V; ester 8-C) ?
Data returned: 1.28E−06

Data request: Which TGI MEL-28 value is on record for C/C=C1\NC(=O)[C@H](Cc2ccccc2)NC(=O)[C@@H](C(C)C)NC(=O)[C@@H]([C@@H](C)CC)NC(=O)[C@H](NC(=O)[C@H](NC(=O)[C@H](CCCN)NC(=O)[C@H]2CCCN2C(=O)[C@H](NC(=O)[C@@H](NC(=O)[C@@H](NC(=O)[C@H](NC(=O)CCCCCCCCCCCCCCCCCCC)C(C)C)[C@@H](C)O)C(C)C)C(C)C)[C@@H](C)CC)[C@@H](C)OC(=O)[C@H](C(C)C)NC1=O [Compound 13, [Icos^14]-KF] ?
Data returned: 2.21E−06

====

System: SK-MEL-28
assay-text: SRB colorimetric assay of cell growth and viability, SK-MEL-28
Type: cell-based, human
run-conditions: 48 hours exposure; read-out: LC50 MEL-28
Where a SMILES comes first, the peptide text is derived from it. Bridges are numbered along the chain shown (N, C = ends). [ ]: non-standard residue; d: D form. The star is where a group is joined. d(aIle) = CC[C@H](C)[C@@H](N)C(=O)O; d(aThr) = C[C@@H](O)[C@@H](N)C(=O)O; Hexanoyl(5-Me) = CC(C)CCCC(=O)*; Orn = NCCC[C@H](N)C(=O)O; Dhb = C/C=C(\N)C(=O)O
Exercise: state measured CC50 for each of the molecules provided.
A number alone suffices; assume µM.

Data request: Which CC50 value is on record for C/C=C1\NC(=O)[C@H](Cc2ccccc2)NC(=O)[C@@H](C(C)C)NC(=O)[C@@H]([C@@H](C)CC)NC(=O)[C@H](NC(=O)[C@H](NC(=O)[C@H](CCCN)NC(=O)[C@H]2CCCN2C(=O)[C@H](NC(=O)[C@@H](NC(=O)CNC(=O)CCCC(C)C)C(C)C)C(C)C)[C@@H](C)CC)[C@@H](C)OC(=O)[C@H](C(C)C)NC1=O [Compound 53, [Gly^12, noD-Val^13]-KF] ({Hexanoyl(5-Me)}-GV[dV][dP][Orn][d(aIle)][d(aThr)][d(aIle)][dV]F[Dhb]V; ester 7-C) ?
Data returned: 7.49

Data request: Which CC50 value is on record for C/C=C1\NC(=O)[C@H](Cc2ccccc2)NC(=O)[C@@H](C(C)C)NC(=O)[C@@H]([C@@H](C)CC)NC(=O)[C@H](NC(=O)[C@H](NC(=O)[C@H](CCCN)NC(=O)[C@H]2CCCN2C(=O)[C@H](NC(=O)[C@@H](NC(=O)[C@@H](NC(=O)[C@H](NC(=O)c2ccc(C(F)(F)F)cc2)C(C)C)[C@@H](C)O)C(C)C)C(C)C)[C@@H](C)CC)[C@@H](C)OC(=O)[C@H](C(C)C)NC1=O [Compound 21, [p-CF3Bza^14]-KF] ?
Data returned: 3.8

====

Test system: A-549
assay-text: SRB colorimetric assay of cell growth and viability, A-549
Format: cell-based, human
run-conditions: 48 hours exposure; read-out: LC50 A-549
Where a SMILES comes first, the peptide text is derived from it. Bridges are numbered along the chain shown (N, C = ends). [ ]: non-standard residue; d: D form. The star is where a group is joined. d(aIle) = CC[C@H](C)[C@@H](N)C(=O)O; d(aThr) = C[C@@H](O)[C@@H](N)C(=O)O; Hexanoyl(5-Me) = CC(C)CCCC(=O)*; Orn = NCCC[C@H](N)C(=O)O; Dhb = C/C=C(\N)C(=O)O
assay-readout: CC50 (µM)
A number alone suffices; assume µM.

Data request: Which CC50 value is on record for C/C=C1\NC(=O)[C@H](Cc2ccccc2)NC(=O)[C@@H](C(C)C)NC(=O)[C@@H]([C@@H](C)CC)NC(=O)[C@H](NC(=O)[C@H](NC(=O)[C@H](CCCN)NC(=O)[C@H]2CCCN2C(=O)[C@H](NC(=O)[C@@H](NC(=O)[C@H](CC(C)C)NC(=O)CCCC(C)C)C(C)C)C(C)C)[C@@H](C)CC)[C@@H](C)OC(=O)[C@H](C(C)C)NC1=O [Compound 54, [Leu^12, noD-Val^13]-KF] ({Hexanoyl(5-Me)}-LV[dV][dP][Orn][d(aIle)][d(aThr)][d(aIle)][dV]F[Dhb]V; ester 7-C) ?
Data returned: 4.23
